Molecular target: Am2136 WT (Akkermansia muciniphila, UniProt B2UPR7)
Construct: The coding region (residue Q20-L756) of Am2136 without signal peptide was based on UniProt; 6XHis (N); made in house; host or cells: E. coli BL21 (DE3)
Experiment: Nucleotide binding affinity by intrinsic fluorescence
Settings: WT dialyzed (EDTA treated)
Procedure: The nucleotide binding ability was determined on Fluorescence Spectrometer Duetta (HORIBA) by measuring the change of peak intensity. The fluorescence was excited at 286 nm and emitted at 336 nm. And the measurement was processed under 400 V voltage with 2.5 nm excitation slit and 5 nm emission slit. […] The sample was incubated at 4°C for 5 min before testing.
property-label: Kd (µM)
Give a bare numeral; the unit µM is implied.

stdin: Name the recorded Kd for Nc1nc2c(ncn2[C@@H]2O[C@H](COP(=O)(O)OP(=O)(O)O)[C@@H](O)[C@H]2O)c(=O)[nH]1 .
stdout: 114

----------
Target: Am2136 E649A (Akkermansia muciniphila, UniProt B2UPR7, E649A)
Sequence (B2UPR7 20-756 E649A): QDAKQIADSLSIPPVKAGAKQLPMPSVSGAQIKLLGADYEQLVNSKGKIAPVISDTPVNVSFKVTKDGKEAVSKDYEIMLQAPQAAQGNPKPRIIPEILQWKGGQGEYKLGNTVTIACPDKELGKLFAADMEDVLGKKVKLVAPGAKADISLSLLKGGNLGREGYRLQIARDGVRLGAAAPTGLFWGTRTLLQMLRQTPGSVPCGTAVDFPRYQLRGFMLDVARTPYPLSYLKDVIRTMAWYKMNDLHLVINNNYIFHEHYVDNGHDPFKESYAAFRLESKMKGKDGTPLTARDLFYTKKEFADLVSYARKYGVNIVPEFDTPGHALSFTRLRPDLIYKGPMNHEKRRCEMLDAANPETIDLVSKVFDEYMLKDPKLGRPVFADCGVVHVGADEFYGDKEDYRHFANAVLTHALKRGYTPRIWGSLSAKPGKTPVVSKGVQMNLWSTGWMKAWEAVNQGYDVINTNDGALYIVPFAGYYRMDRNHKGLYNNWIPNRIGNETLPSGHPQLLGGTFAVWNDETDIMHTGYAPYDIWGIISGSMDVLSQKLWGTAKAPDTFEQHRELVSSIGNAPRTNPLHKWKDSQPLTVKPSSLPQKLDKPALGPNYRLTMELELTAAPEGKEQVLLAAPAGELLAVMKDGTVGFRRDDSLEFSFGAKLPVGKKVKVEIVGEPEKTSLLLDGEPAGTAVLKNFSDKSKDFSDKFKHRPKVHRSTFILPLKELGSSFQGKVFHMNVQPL
Experiment: Nucleotide binding affinity by intrinsic fluorescence, mutant
property-label: pKd
Units for pKd: none; it is -log10 of a concentration expressed in mol/L.

stdin: Name the recorded pKd for Nc1nc2c(ncn2[C@@H]2O[C@H](COP(=O)(O)OP(=O)(O)O)[C@@H](O)[C@H]2O)c(=O)[nH]1 [GDP] .
stdout: 3.63

----------
target: Am2136 WT (Akkermansia muciniphila); construct: The coding region (residue Q20-L756) of Am2136 without signal peptide was based on UniProt; 6XHis (N); made in house; host or cells: E. coli BL21 (DE3); assay: Enzyme activity assay (pNP-β-GlcNAc hydrolysis) regulated by nucleotides; format: biochemical; settings: WT; 1 mM nucleotide; substrate pNP-β-GlcNAc; 37°C
property-label: Vmax

Sample records with Vmax:
smiles	tgt	property-label	result
Nc1ncnc2c1ncn2[C@@H]1O[C@H](COP(=O)(O)OP(=O)(O)OP(=O)(O)O)[C@@H](O)[C@H]1O	Am2136 WT (Akkermansia muciniphila)	Vmax	442 ± 9 µmol/min
Nc1ccn([C@@H]2O[C@H](COP(=O)(O)OP(=O)(O)O)[C@@H](O)[C@H]2O)c(=O)n1	Am2136 WT (Akkermansia muciniphila)	Vmax	435 ± 6 µmol/min
Nc1nc2c(ncn2[C@@H]2O[C@H](COP(=O)(O)OP(=O)(O)OP(=O)(O)O)[C@@H](O)[C@H]2O)c(=O)[nH]1	Am2136 WT (Akkermansia muciniphila)	Vmax	449 ± 7 µmol/min
O=c1ccn([C@@H]2O[C@H](COP(=O)(O)OP(=O)(O)OP(=O)(O)O)[C@@H](O)[C@H]2O)c(=O)[nH]1	Am2136 WT (Akkermansia muciniphila)	Vmax	439 ± 7 µmol/min
O=c1ccn([C@@H]2O[C@H](COP(=O)(O)OP(=O)(O)O)[C@@H](O)[C@H]2O)c(=O)[nH]1	Am2136 WT (Akkermansia muciniphila)	Vmax	429 ± 9 µmol/min
Nc1nc2c(ncn2[C@@H]2O[C@H](COP(=O)(O)OP(=O)(O)O)[C@@H](O)[C@H]2O)c(=O)[nH]1	Am2136 WT (Akkermansia muciniphila)	Vmax	442 ± 7 µmol/min
Nc1ncnc2c1ncn2[C@@H]1O[C@H](COP(=O)(O)OP(=O)(O)O)[C@@H](O)[C@H]1O	Am2136 WT (Akkermansia muciniphila)	Vmax	422 ± 6 µmol/min

Now for the molecule whose Vmax we want.
stdin: Name the recorded Vmax for Nc1ccn([C@@H]2O[C@H](COP(=O)(O)OP(=O)(O)OP(=O)(O)O)[C@@H](O)[C@H]2O)c(=O)n1 .
stdout: 436 ± 7 µmol/min
